target: AchR (Homo sapiens, UniProt P02708); experiment: ELISA of screened peptide phages on AchR versus streptavidin (OD450); assay type: binding; settings: ELISA of selected 14-mer (L3) peptide phages on AchR, absorbance at 450 nm; Spep-2 positive control
Sequence (P02708 21-457): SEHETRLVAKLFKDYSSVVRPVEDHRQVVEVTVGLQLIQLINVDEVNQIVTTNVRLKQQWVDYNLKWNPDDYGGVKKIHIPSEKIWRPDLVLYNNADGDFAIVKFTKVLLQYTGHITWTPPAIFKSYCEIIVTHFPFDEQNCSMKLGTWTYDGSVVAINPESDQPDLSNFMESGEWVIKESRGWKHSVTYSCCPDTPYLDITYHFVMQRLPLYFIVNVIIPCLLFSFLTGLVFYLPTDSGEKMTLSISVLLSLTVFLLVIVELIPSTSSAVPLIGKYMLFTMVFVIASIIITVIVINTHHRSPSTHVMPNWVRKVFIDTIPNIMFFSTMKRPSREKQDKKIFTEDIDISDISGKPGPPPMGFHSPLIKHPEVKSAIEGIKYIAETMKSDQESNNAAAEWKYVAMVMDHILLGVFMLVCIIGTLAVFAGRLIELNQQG
readout kind: OD

Which OD value is on record for L3-107 (DLSKVRRGHGKNDI; AchR binding peptide) [Peptide L3-107] ?
0.658

Which OD value is on record for L3-123 (PGERLKKEDHRASG; AchR binding peptide) [Peptide L3-123] ?
0.654

Which OD value is on record for L3-60 (EDLRCKKLELRSVI; AchR binding peptide) [Peptide L3-60] ?
0.574

Which OD value is on record for L3-192 (NGYRARKENLKFPE; AchR binding peptide) [Peptide L3-192] ?
0.735

====

target: AchR (Homo sapiens, UniProt P02708); experiment: ELISA of screened peptide phages on AchR versus streptavidin (OD450); format: binding; conditions: ELISA of selected 14-mer (L3) peptide phages on AchR, absorbance at 450 nm; Spep-2 positive control
For each entry below, report its OD value.

Which OD value is on record for L3-11 (FMQKCKKWWDRAVF; AchR binding peptide) [Peptide L3-11] ?
0.8

Which OD value is on record for L3-93 (EGGRIKRPNYRGDG; AchR binding peptide) [Peptide L3-93] ?
0.7

Which OD value is on record for L3-5 (NEDRGKRPHIRVLG; AchR binding peptide) [Peptide L3-5] ?
0.82

Which OD value is on record for L3-186 (YEHRHKRFFHKDMP; AchR binding peptide) [Peptide L3-186] ?
0.799

====

biological target: AchR (Homo sapiens); assay: ELISA of screened peptide phages on AchR versus streptavidin (OD450); assay type: binding; conditions: phage ELISA, absorbance at 450 nm, 5 μg/ml AchR; 4th and 5th round biopanning phages
For each entry below, report its OD value.
// keep it numeric: no unit symbol after the value

Which OD value is on record for KTKKLYEK [Peptide L1-25] ?
0.709

Which OD value is on record for KAKRDYLR [Peptide L1-145] ?
0.54

Which OD value is on record for REKKYAYK [Peptide L1-181] ?
0.589

Which OD value is on record for KLKKFPVR [Peptide L1-4] ?
0.696

Which OD value is on record for RHKRWEVR [Peptide L1-195] ?
0.642

Which OD value is on record for KDKKTPCK [Peptide L1-193] ?
0.588

Which OD value is on record for RTKRWQLK [Peptide L1-94] ?
0.496

Which OD value is on record for KERKGAVR [Peptide L1-100] ?
0.737

Which OD value is on record for KARKQEVR [Peptide L1-188] ?
0.618

Which OD value is on record for RPKRNWAK [Peptide L1-96] ?
0.494

====

target: AchR (Homo sapiens); test: ELISA of screened peptide phages on AchR versus streptavidin (OD450); assay type: binding; conditions: ELISA of selected 11-mer (L2) peptide phages on AchR, absorbance at 450 nm; Spep-2 positive control
readout kind: OD
// keep it numeric: no unit symbol after the value

Which OD value is on record for L2-182 (HEQRPKKGQQK; AchR binding peptide) [Peptide L2-182] ?
0.681

Which OD value is on record for L2-79 (EGAKYRRDGWR; AchR binding peptide) [Peptide L2-79] ?
0.689

Which OD value is on record for L2-78 (HHNRMKKQYHR; AchR binding peptide) [Peptide L2-78] ?
0.718

Which OD value is on record for L2-87 (EWHKVRRVYAK; AchR binding peptide) [Peptide L2-87] ?
0.716

Which OD value is on record for L2-172 (CTWRGRRPHDK; AchR binding peptide) [Peptide L2-172] ?
0.685

Which OD value is on record for L2-86 (SQWKIRKRLIR; AchR binding peptide) [Peptide L2-86] ?
0.701

Which OD value is on record for L2-81 (TMWRQRKMSCK; AchR binding peptide) [Peptide L2-81] ?
0.705

Which OD value is on record for L2-80 (FWDRVKRNPSK; AchR binding peptide) [Peptide L2-80] ?
0.685

Which OD value is on record for L2-174 (PLFKSRRAYVR; AchR binding peptide) [Peptide L2-174] ?
0.693

====

For each entry below, report its OD value.
Molecular target: AchR (Homo sapiens, UniProt P02708)
Assay: ELISA of screened peptide phages on AchR versus streptavidin (OD450)
Assay type: binding
Details: phage ELISA, absorbance at 450 nm, 5 μg/ml AchR; 4th and 5th round biopanning phages
Procedure: The output phages for the 4th and 5th rounds of biopanning in Example 13-1 were inoculated to E. coli, and plated on the agar plates so as to form 100-200 plaques per plate. […] In a 96-well ELISA plate, 5 μg/ml AchR or streptavidin was added at 50 μl per well, and left at 4° C. overnight. […] The measured absorbance was converted into a ratio of AchR absorbance to streptavidin absorbance (AchR signal/streptavidin signal), and the results are shown in FIGS. 14 to 16.
// keep it numeric: no unit symbol after the value

Which OD value is on record for RPKKHQER [Peptide L1-158] ?
0.605

Which OD value is on record for KTRKIVMK [Peptide L1-199] ?
0.596

Which OD value is on record for RLRRWCVK [Peptide L1-30] ?
0.605
